This collection of values is drawn from ChEMBL document CHEMBL3988442.

Consider the following compounds and their measured Percent Effect readings.
Tested on: Wolbachia pipientis
Experiment: Anti-Wolbachia Cell-Based Screen
Format: functional
Parameters: scale not given: in the data most compounds retested in dose-response had high values
Details: 5 µM
The whole screen tested about 48,000 compounds, of which about 13,000 (27%) showed an effect of 50% or more. Some of the results follow.
State just the number; it will be interpreted in %.

Below, 5 compounds whose answers are already recorded.
# compound, endpoint unit, Percent Effect
measured = [
    ("COc1ccc2c(c1)OC1(CCN(Cc3ccccc3C)CC1)CC2=O", "%", 114.8),
    ("CC(C)c1nc(N2CCC(N3CCSCC3)CC2)c2cnn(C)c2n1", "%", 102.9),
    ("O=C1COc2cccc(OCc3ccccn3)c2N1", "%", -1.975),
    ("CN1CCCN(c2nc(C3CCCC3)nc3c2cnn3C)CC1", "%", 2.389),
    ("Cc1ccc(C(C(=O)N2CCN(C(=O)c3ccc[nH]3)CC2)N(C)C)cc1 (centres undefined)", "%", 1.987),
]

Documented Percent Effect of Cn1ncc2c(N3CCS(=O)(=O)CC3)nc(C3CCCC3)nc21 : -3.304

Documented Percent Effect of COCCN1CC(=O)c2sc(NC(C)C)nc2C1 : 130.5

Documented Percent Effect of CCCc1n[nH]c(C2CN(CCCS(C)(=O)=O)CCO2)n1 (centres undefined) : 8.162

Documented Percent Effect of Cc1cccc(CN2CCC3(CC(C(=O)NCC(C)C)=NO3)C2)c1 (centres undefined) : 117.4

Documented Percent Effect of COCCN1CCC(NCc2c(C(C)C)nn(C)c2N(C)C)CC1 : -4.673

Documented Percent Effect of CC(=O)NCCC1CCN(c2nc(C(C)(C)C)nc3c2cnn3C)CC1 : -2.953

Documented Percent Effect of CCN1CC(=O)c2sc(NC(C)C)nc2C1 : 96.98

Documented Percent Effect of COCCN1CCc2cc(C(=O)N(C)C)c(NC(C)C)nc2CC1.O=C(O)C(F)(F)F.O=C(O)C(F)(F)F : 7.689

Documented Percent Effect of Cc1cc(C)n(-c2ccc(N3CCC4(CC3)OCC(C)O4)nc2)n1 (centres undefined) : 14.39

Documented Percent Effect of CC(C)c1nc(N2CC(N3CCCCC3C)C2)c2cnn(C)c2n1 (centres undefined) : 11.15
